experimental_target: HLA-A*33:01
test_method_notes: IEDB peptide-MHC binding, purified MHC/competitive/radioactivity; filed as Kd, often an IC50 or EC50 that approximates it; bounds were set here for any values at or beyond the usual limits of such assays
condition_details: source organism: Vaccinia virus WR
recorded_metric: Kd

// solved cases for Kd follow
>  <sequence_string>
ASKKDKLTVY

>  <experimental_target>
HLA-A*33:01

>  <Kd>
≥ 70 µM

$$$$
>  <sequence_string>
IVHSYLKNY

>  <experimental_target>
HLA-A*33:01

>  <Kd>
≥ 77.7 µM

$$$$
>  <sequence_string>
IVRTMPNESR

>  <experimental_target>
HLA-A*33:01

>  <Kd>
10.7 µM

$$$$
>  <sequence_string>
TSVDIETAIR

>  <experimental_target>
HLA-A*33:01

>  <Kd>
1.44 µM

$$$$
>  <sequence_string>
LFKNLATSIY

>  <experimental_target>
HLA-A*33:01

>  <Kd>
≥ 70 µM

$$$$
>  <sequence_string>
KSIHLTKTDK

>  <experimental_target>
HLA-A*33:01

>  <Kd>
≥ 70 µM

$$$$

Consider the additional sequence presented here.
INPUT: Item under review: `TIRHMWSVVY` . Reported Kd?
OUTPUT: ≥ 70 µM

* * *

experimental_target: HLA-A*68:01
test_method_notes: IEDB peptide-MHC binding, purified MHC/competitive/radioactivity; filed as Kd, often an IC50 or EC50 that approximates it; bounds were set here for any values at or beyond the usual limits of such assays
condition_details: source organism: Vaccinia virus WR
I'd appreciate it if you could supply Kd values for the items below.

>  <sequence_string>
TSVDIETAIR

>  <recorded_metric>
Kd

>  <data_value>
1.35 nM

$$$$
>  <sequence_string>
GIFVDTMSIY

>  <recorded_metric>
Kd

>  <data_value>
3380 nM

$$$$
>  <sequence_string>
TLYVKALTK

>  <recorded_metric>
Kd

>  <data_value>
185 nM

$$$$
>  <sequence_string>
RLYDYFTRV

>  <recorded_metric>
Kd

>  <data_value>
≥ 77700 nM

$$$$
>  <sequence_string>
VINAPIKEFK

>  <recorded_metric>
Kd

>  <data_value>
6.75 nM

$$$$
>  <sequence_string>
LFKNLATSIY

>  <recorded_metric>
Kd

>  <data_value>
19900 nM

$$$$
>  <sequence_string>
YSKLTKDRK

>  <recorded_metric>
Kd

>  <data_value>
52.3 nM

$$$$

Consider the additional sequence presented here.
INPUT: Item under review: `ISRTRLYDY` . Reported Kd?
OUTPUT: ≥ 42900 nM

All figures here come from the Immune Epitope Database (IEDB).
